# Lookup of reported target mRNA inhibition keyed by entry
target: IRF5; settings: ASO, KARPAS-229, 4 µM
After the bases stand the sugars from the 5' end (letter, count) and the backbone: PS all phosphorothioate, else s phosphorothioate and o phosphodiester by linkage. Methylation of C is not given here. e = 2'-O-(2-methoxyethyl) (MOE); k = constrained ethyl (cEt); d = 2'-deoxy (DNA)
Express the result in % but write the number alone.

Please review the entries below; each comes with its answer.
residue-codes: ATCACCACTGTGTACC (sugars kddddddddddkekek, PS)
target mRNA inhibition / %: 0
--
residue-codes: CCTTCTGCAGGGAGTC (sugars kekdddddddddeekk, PS)
target mRNA inhibition / %: 14
--
residue-codes: ATGGTGTTATCTCCGT (sugars kddddddddddkekek, PS)
target mRNA inhibition / %: 0

Memo: TCAGCTTTCTTGTCTA (sugars k3 d10 k3, PS) , reported target mRNA inhibition: 15

Lookup result for GGTGAGTAGGACGAGT (sugars k3 d10 k3, PS) ; measured target mRNA inhibition: 48

For reference, reported target mRNA inhibition for ACCATTCTATGCCTTT (sugars kkddddddddkekekk, PS) stands at 0

Given item CCAATGCAACATCCAT (sugars k3 d9 k3 e1, PS) , the value recorded as its target mRNA inhibition is 16

====

target: KRAS; conditions: ASO, A431, 2 µM
After the bases stand the sugars from the 5' end (letter, count) and the backbone: PS all phosphorothioate, else s phosphorothioate and o phosphodiester by linkage. Methylation of C is not given here. e = 2'-O-(2-methoxyethyl) (MOE); k = constrained ethyl (cEt); d = 2'-deoxy (DNA)
The reader will find reported target mRNA inhibition values listed item by item below.
State just the number; it will be interpreted in %.

residue-codes: GTATCTTGTTGAGCTA (sugars k3 d10 k3, PS)
target-entity: KRAS
unit-tag: %
target mRNA inhibition: 56
--
residue-codes: GAGAATGGATATTCAA (sugars k3 d10 k3, PS)
target-entity: KRAS
unit-tag: %
target mRNA inhibition: 8
--
residue-codes: TGACTAATAGCAGTGG (sugars k3 d10 k3, PS)
target-entity: KRAS
unit-tag: %
target mRNA inhibition: 58

KRAS target mRNA inhibition of TACTTTTTGACAAATG (sugars k3 d10 k3, PS) is 37

Known value: KRAS target mRNA inhibition of the sequence CCATTCAAAGTTCACA (sugars kkddddddddkekekk, PS) equals 57

Item TCCAGTGATACTTTCA (sugars k3 d10 k3, PS) ; assay system KRAS; target mRNA inhibition reported as 51

Param item: TCCATTTATGTGACTA (sugars kkddddddddddkeke, PS) ; param system: KRAS; output target mRNA inhibition: 22

Entry TAACCAGTGTTAAGAG (sugars k3 d10 k3, PS) , tested on KRAS, has a reported target mRNA inhibition of 40

Summary: TGTACTAGTATGCCTT (sugars k3 d10 k3, PS) , KRAS, target mRNA inhibition = 66

Noted target mRNA inhibition for GATTGTGCTGAGCTTG (sugars k3 d10 k3, PS) , tested on KRAS: 63

====

target mRNA inhibition for assorted sequences
target: MALAT1; settings: ASO, A431, 0.005 µM
After the bases stand the sugars from the 5' end (letter, count) and the backbone: PS all phosphorothioate, else s phosphorothioate and o phosphodiester by linkage. Methylation of C is not given here. k = constrained ethyl (cEt); d = 2'-deoxy (DNA)
Supply the numeric figure in %, leaving out any unit text.

Example sequences with recorded target mRNA inhibition:
residue-codes: TAATCTCCCACCTGTC (sugars k3 d10 k3, PS)
target mRNA inhibition [%]: 7
//
residue-codes: TAGGATCCTCTACGCA (sugars k3 d10 k3, PS)
target mRNA inhibition [%]: 23
//
residue-codes: CAAACTACACATGCAG (sugars k3 d10 k3, PS)
target mRNA inhibition [%]: 6
//
residue-codes: CACCTTCGGTTTAATC (sugars k3 d10 k3, PS)
target mRNA inhibition [%]: 20
//
residue-codes: GATCCAAGCTACTGGC (sugars k3 d10 k3, PS)
target mRNA inhibition [%]: 18

// below: target mRNA inhibition requested for another sequence
Entry CACCTTCCGCCGCCTC (sugars k3 d10 k3, PS) , tested on MALAT1, has a reported target mRNA inhibition of 28

====

target: APOL1; conditions: ASO, A431, 0.0625 µM
After the bases stand the sugars from the 5' end (letter, count) and the backbone: PS all phosphorothioate, else s phosphorothioate and o phosphodiester by linkage. Methylation of C is not given here. e = 2'-O-(2-methoxyethyl) (MOE); k = constrained ethyl (cEt); d = 2'-deoxy (DNA)
Hi, to clarify the labels: condition met covers target mRNA inhibition from 50% upward, condition not met covers anything below 50%.

// below: answered sequences
residue-codes: GTAAGTGCAACCAATC (sugars k4 d9 k3, PS)
target-entity: APOL1
discrete-label: condition met

residue-codes: CACATCATTGGGTTAT (sugars k4 d9 k3, PS)
target-entity: APOL1
discrete-label: condition met

residue-codes: GAATGAGCAGGTCAGA (sugars k4 d9 k3, PS)
target-entity: APOL1
discrete-label: condition not met

residue-codes: GAACATTGAAACACCA (sugars k4 d9 k3, PS)
target-entity: APOL1
discrete-label: condition not met

residue-codes: ATAATGGTAGGTCTAC (sugars k4 d9 k3, PS)
target-entity: APOL1
discrete-label: condition not met

Determine whether measured target mRNA inhibition meets or exceeds 50% for CTTTATACCAGTGTCT (sugars kkddddekekeddddd, PS) condition met

Hi team, for GGTTCAAAAGCAGCAT (sugars k4 d9 k3, PS) , is the recorded target mRNA inhibition at or above 50%? condition met

====

target: APOL1; settings: ASO, A431, 0.0156 µM
After the bases stand the sugars from the 5' end (letter, count) and the backbone: PS all phosphorothioate, else s phosphorothioate and o phosphodiester by linkage. Methylation of C is not given here. e = 2'-O-(2-methoxyethyl) (MOE); k = constrained ethyl (cEt); d = 2'-deoxy (DNA)
Decide using target mRNA inhibition: a value greater than or equal to 20% is condition met, a smaller one is condition not met.

residue-codes: GCTTTAAACTCAGGTG (sugars kkkddddkdkdkdddd, PS)
discrete-label: condition not met

Textbook exercise: given the entry ACGCAATGCTGACTTG (sugars kkddddekekeddddd, PS) , state whether its target mRNA inhibition is greater than or equal to 20%. condition not met

====

target: MALAT1; conditions: ASO, A431, 0.005 µM
After the bases stand the sugars from the 5' end (letter, count) and the backbone: PS all phosphorothioate, else s phosphorothioate and o phosphodiester by linkage. Methylation of C is not given here. k = constrained ethyl (cEt); d = 2'-deoxy (DNA)
Attribute: target mRNA inhibition
Number first, unit second: that is the form wanted.

Before answering, review these 6 worked examples.
residue-codes: GGATCCTCTACGCACA (sugars k3 d10 k3, PS)
experimental-endpoint: target mRNA inhibition
endpoint-result: 19%
--
residue-codes: TCATCCTACCACTCCC (sugars k3 d10 k3, PS)
experimental-endpoint: target mRNA inhibition
endpoint-result: 34%
--
residue-codes: TAACTAGGCTTTAAAT (sugars k3 d10 k3, PS)
experimental-endpoint: target mRNA inhibition
endpoint-result: 14%
--
residue-codes: AGTCCTGCGACTTGCT (sugars k3 d10 k3, PS)
experimental-endpoint: target mRNA inhibition
endpoint-result: 26%
--
residue-codes: AGAGCATTGGAGATCA (sugars k3 d10 k3, PS)
experimental-endpoint: target mRNA inhibition
endpoint-result: 20%
--
residue-codes: AGGCTCGATGGAAAAA (sugars k3 d10 k3, PS)
experimental-endpoint: target mRNA inhibition
endpoint-result: 28%

# target mRNA inhibition measured on MALAT1 for item CCAAAGACCTCGACAC (sugars k3 d10 k3, PS) = 13%

Lab entry: MALAT1 assay, sequence GGTTTTATCTAAATAC (sugars k3 d10 k3, PS) , target mRNA inhibition = 25%

Case ATTCCCACCCAAAAGC (sugars k3 d10 k3, PS) , MALAT1, target mRNA inhibition recorded as 5%

Lab entry: MALAT1 assay, sequence CCCAACTGCTTGCAGT (sugars k3 d10 k3, PS) , target mRNA inhibition = 9%

// sequence GACTTGCTCCCAAGAC (sugars k3 d10 k3, PS) , assay MALAT1, target mRNA inhibition value: 7%

====

// reported target mRNA inhibition per item
molecular target: ANGPTL2; details: ASO, 5 µM
After the bases stand the sugars from the 5' end (letter, count) and the backbone: PS all phosphorothioate, else s phosphorothioate and o phosphodiester by linkage. Methylation of C is not given here. l = locked nucleic acid (LNA); d = 2'-deoxy (DNA)
Just the number in %, nothing appended.

Lab note: measured target mRNA inhibition of AGTGAGAGGAAGTCAGGG (sugars l1 d15 l2, PS) was 39.6

Given item GTTGATGATGCGGTTGTA (sugars l1 d15 l2, PS) , the value recorded as its target mRNA inhibition is 44.2

# target mRNA inhibition (sequence: ATAGCAGGGAGTGACC (sugars l2 d12 l2, PS) ) is 8.4

Short answer for GCAGTTATCACACCACA (sugars l1 d13 l3, PS) : target mRNA inhibition was 38.9

Entry under test: ATCTGGTTGATGATGCGG (sugars l2 d14 l2, PS) . Its target mRNA inhibition was 75.2

So for AGTGTTTAAGAAGAAATG (sugars l4 d10 l4, PS) , the logged target mRNA inhibition turned out to be 41.7
